- experiment.description: Rat liver microsomal metabolic stability
- Assay type: in vitro ADME
- measurement.parameters: rat liver microsomes, calculated from T1/2, fu defaulted to 1; read-out: CL(liver)
reported.endpoint: CLint scaled at 1 µM (mL/min/kg)
Give just the numeric value; mL/min/kg need not be written.

Previously resolved entries follow.
CLint scaled at 1 µM measured on C[C@@H](Nc1nnc(N2CCN(C)CC2)c2cc(=O)n(C3(C)CC3)cc12)c1cccc(C(F)F)c1F.O=CO [Example 80, formate] = 12.1

CLint scaled at 1 µM measured on `CCNc1nnc(N[C@H](C)c2cccc(C(F)(F)F)c2C)c2cn(C3(C)CC3)c(=O)cc12` = 16.7

CLint scaled at 1 µM measured on `CCN1CCN(c2nnc(N[C@H](C)c3cccc(C(F)F)c3F)c3cn(C4CCC4)c(=O)cc23)CC1` = 10.2

CLint scaled at 1 µM measured on `CNc1nnc(N[C@H](C)c2cccc(C#N)c2C)c2cn(C3CC3)c(=O)cc12` = 9.7

CLint scaled at 1 µM measured on `C[C@@H](Nc1nnc(N2CCNCC2)c2cc(=O)n(C3(C)CC3)cc12)c1cccc(C(F)F)c1F` = 8.4

// below: CLint scaled at 1 µM requested for another molecule
CLint scaled at 1 µM measured on `CC(C)N1CCN(c2nnc(N[C@H](C)c3cccc(C(F)F)c3F)c3cn(C4CCC4)c(=O)cc23)CC1` = 13.9
